Values compiled from patent US11383003B2.

I'd be grateful if you could share measured % change in the death rate compared to the control for these entries.
# Tested on: C. elegans glp4; sek1 infected with C. albicans SC5314
# Protocol description: Death rate of C. elegans glp4; sek1 infected with C. albicans SC5314, 96 well plates
# Assay type: in vivo, Caenorhabditis elegans
# Measurement conditions: 3.0 mM; 5 days; 25° C.; two replicates
Give bare numbers, in %.

- Compound: "C=CC(C)(O)CC/C=C(\\C)CCC=C(C)C (stereo not drawn) [trans-nerolidol, reference compound]"
  Assay system: "C. elegans glp4; sek1 infected with C. albicans SC5314"
  Measured value: 9

Give me % change in the death rate compared to the control for each of these compounds, listed below.
1. CC(C)=CCC/C(C)=C/CC/C(C)=C/COCCCCO [#5 synthesized analog]
2. CC(=O)OCC=C(C)CCC=C(C)CCC=C(C)C [farnesyl acetate, reference compound]
3. CC(C)=CCC/C(C)=C/CC/C(C)=C/COC(=O)CCC(=O)OCCCO [#3 synthesized analog]
4. CC(C)=CCC/C(C)=C/CC/C(C)=C/COC(=O)CCC(=O)OCCO [#4 synthesized analog]

Response:
[4, 7, 7, 10]

Give me % change in the death rate compared to the control for each of these compounds, listed below.
1. CC(C)=CCC/C(C)=C/CC/C(C)=C/COC(=O)CCC(=O)OCCCCO [#2 synthesized analog]
2. CC(C)=CCC/C(C)=C/CC/C(C)=C/COC(=O)CCC(=O)O [#1 synthesized analog]

Response:
−40
10

====

# Tested on: C. elegans glp4; sek1 infected with C. albicans SC5314
# Protocol description: Death rate of C. elegans glp4; sek1 infected with C. albicans SC5314, 96 well plates
# Type: in vivo, Caenorhabditis elegans
# Measurement conditions: 3.0 mM; 4 days; 25° C.; two replicates
I'd be grateful if you could share measured % change in the death rate compared to the control for these entries.
Numbers only, in %.

Study these solved cases before continuing.
- Compound: "CC(C)=CCC/C(C)=C/CC/C(C)=C/COCCCCO [#5 synthesized analog]"
  Assay system: "C. elegans glp4; sek1 infected with C. albicans SC5314"
  Measured value: "−4"
- Compound: "CC(C)=CCC/C(C)=C/CC/C(C)=C/COC(=O)CCC(=O)OCCCO [#3 synthesized analog]"
  Assay system: "C. elegans glp4; sek1 infected with C. albicans SC5314"
  Measured value: "−2"
- Compound: "CC(=O)OCC=C(C)CCC=C(C)CCC=C(C)C [farnesyl acetate, reference compound]"
  Assay system: "C. elegans glp4; sek1 infected with C. albicans SC5314"
  Measured value: 24

Prompt: Which % change in the death rate compared to the control is listed for CC(C)=CCC/C(C)=C/CC/C(C)=C/COC(=O)CCC(=O)OCCO [#4 synthesized analog] ?
Response: 7

====

I'd be grateful if you could share measured % change in the death rate compared to the control for these entries.
# Tested on: C. elegans glp4; sek1 infected with C. albicans SC5314
# Protocol description: Death rate of C. elegans glp4; sek1 infected with C. albicans SC5314, 96 well plates
# Assay type: in vivo, Caenorhabditis elegans
# Measurement conditions: 2.0 mM; 5 days; 25° C.; two replicates (* three)
Give bare numbers, in %.

Give me % change in the death rate compared to the control for each of these molecules, listed below.
1. CC(C)=CCC/C(C)=C/CC/C(C)=C/COCCCCO [#5 synthesized analog]
2. CC(C)=CCC/C(C)=C/CC/C(C)=C/COC(=O)CCC(=O)OCCO [#4 synthesized analog]

Response:
1. 2
2. 8

Give me % change in the death rate compared to the control for each of these molecules, listed below.
1. CC(C)=CCC/C(C)=C/CC/C(C)=C/COC(=O)CCC(=O)OCCCO [#3 synthesized analog]
2. CC(=O)OCC=C(C)CCC=C(C)CCC=C(C)C [farnesyl acetate, reference compound]
3. C=CC(C)(O)CC/C=C(\C)CCC=C(C)C (stereo not drawn) [trans-nerolidol, reference compound]
4. CC(C)=CCC/C(C)=C/CC/C(C)=C/COC(=O)CCC(=O)OCCCCO [#2 synthesized analog]

Response:
9
9
10
−39

Prompt: Which % change in the death rate compared to the control is listed for CC(C)=CCC/C(C)=C/CC/C(C)=C/COC(=O)CCC(=O)O [#1 synthesized analog] ?
Response: −34

====

# Tested on: C. albicans SC5314
# Protocol description: Germ tube formation (GTF %) in vitro screening, GlcNAc-triggered differentiation assay
# Format: cell-based, Candida albicans
# Measurement conditions: 200 μM
I'd be grateful if you could share measured GTF % (mean ± SEM, n = 2) for these entries.
Numbers only, in %.

Study these solved cases before continuing.
- Molecule: "C=CC(C)(O)CC/C=C(\\C)CCC=C(C)C (stereo not drawn) [trans-nerolidol, reference compound]"
  GTF % (mean ± SEM, n = 2), %: 51.6
- Molecule: "CC(=O)OCC=C(C)CCC=C(C)CCC=C(C)C [farnesyl acetate, reference compound]"
  GTF % (mean ± SEM, n = 2), %: 36.8
- Molecule: "CC(C)=CCC/C(C)=C/CC/C(C)=C/COC(=O)CCC(=O)OCCCCO [#2 synthesized analog]"
  GTF % (mean ± SEM, n = 2), %: 33.9
- Molecule: "O=C(O)Cc1ccc(O)cc1 [4-hydroxy phenyl acetic acid]"
  GTF % (mean ± SEM, n = 2), %: 86.2
- Molecule: "CC(C)=CCC/C(C)=C/CC/C(C)=C/COC(=O)CCC(=O)OCCCO [#3 synthesized analog]"
  GTF % (mean ± SEM, n = 2), %: 32.9
- Molecule: "O=C(O)Cc1ccccc1O [2-hydroxy phenyl acetic acid]"
  GTF % (mean ± SEM, n = 2), %: 71.3
- Molecule: "OC[C@H]1O[C@@H](OCCc2ccc(O)cc2)[C@H](O)[C@@H](O)[C@@H]1O [salidroside]"
  GTF % (mean ± SEM, n = 2), %: 78.0

Note: attention shifts to another entry.
Prompt: Which GTF % (mean ± SEM, n = 2) is listed for CC(C)=CCC/C(C)=C/CC/C(C)=C/COC(=O)CCC(=O)O [#1 synthesized analog] ?
Response: 31.2

====

# Test system: C. elegans glp4; sek1
# Protocol description: Toxicity: death rate of C. elegans glp4; sek1 fed on E. coli OP50
# Measurement conditions: 2 mM; worms fed on E. coli OP50; 25° C.
I'd be grateful if you could share measured Death rate (%) for these entries.

Study these solved cases before continuing.
- Compound: "CC(C)=CCC/C(C)=C/CC/C(C)=C/COC(=O)CCC(=O)OCCCO [#3 synthesized analog]"
  Measured value: "6%"
- Compound: "CC(C)=CCC/C(C)=C/CC/C(C)=C/COC(=O)CCC(=O)OCCCCO [#2 synthesized analog]"
  Measured value: "4 ± 0.6%"
- Compound: "C=CC(C)(O)CC/C=C(\\C)CCC=C(C)C (stereo not drawn) [trans-nerolidol, reference compound]"
  Measured value: "23%"
- Compound: "CC(=O)OCC=C(C)CCC=C(C)CCC=C(C)C [farnesyl acetate, reference compound]"
  Measured value: "12%"
- Compound: "CC(C)=CCC/C(C)=C/CC/C(C)=C/COCCCCO [#5 synthesized analog]"
  Measured value: "4%"
- Compound: "CC(C)=CCC/C(C)=C/CC/C(C)=C/COC(=O)CCC(=O)O [#1 synthesized analog]"
  Measured value: "3.3 ± 1.2%"

Give me Death rate (%) for each of these compounds, listed below.
1. CC(C)=CCC/C(C)=C/CC/C(C)=C/CO [E,E-farnesol, reference compound]
2. CC(C)=CCC/C(C)=C/CC/C(C)=C/COC(=O)CCC(=O)OCCO [#4 synthesized analog]

Response:
1: 7%; 2: 2%

====

# Test system: C. elegans glp4; sek1 infected with C. albicans SC5314
# Protocol description: Death rate of C. elegans glp4; sek1 infected with C. albicans SC5314, 96 well plates
# Type: in vivo, Caenorhabditis elegans
# Measurement conditions: 3.0 mM; 4 days; 25° C.; two replicates
I'd be grateful if you could share measured % change in the death rate compared to the control for these entries.
I'd appreciate it if you wrote the number followed by its unit.

- Compound: "C=CC(C)(O)CC/C=C(\\C)CCC=C(C)C (stereo not drawn) [trans-nerolidol, reference compound]"
  Measured value: "7 ± 0%"
- Compound: "CC(C)=CCC/C(C)=C/CC/C(C)=C/COC(=O)CCC(=O)O [#1 synthesized analog]"
  Measured value: "20 ± 3%"

Note: attention shifts to another entry.
Prompt: Which % change in the death rate compared to the control is listed for CC(C)=CCC/C(C)=C/CC/C(C)=C/COC(=O)CCC(=O)OCCCCO [#2 synthesized analog] ?
Response: −40 ± 0%

====

# Test system: C. elegans glp4; sek1 infected with C. albicans SC5314
# Protocol description: Death rate of C. elegans glp4; sek1 infected with C. albicans SC5314, 96 well plates
# Type: in vivo, Caenorhabditis elegans
# Measurement conditions: 1.0 mM; 5 days; 25° C.; two replicates
I'd be grateful if you could share measured % change in the death rate compared to the control for these entries.
Answers are plain numbers, in %.

- Compound: "CC(=O)OCC=C(C)CCC=C(C)CCC=C(C)C [farnesyl acetate, reference compound]"
  Assay system: "C. elegans glp4; sek1 infected with C. albicans SC5314"
  Measured value: 15
- Compound: "CC(C)=CCC/C(C)=C/CC/C(C)=C/COC(=O)CCC(=O)OCCCCO [#2 synthesized analog]"
  Assay system: "C. elegans glp4; sek1 infected with C. albicans SC5314"
  Measured value: "−29"

Note: attention shifts to another entry.
Prompt: Which % change in the death rate compared to the control is listed for CC(C)=CCC/C(C)=C/CC/C(C)=C/COC(=O)CCC(=O)OCCO [#4 synthesized analog] ?
Response: −1
